B1: C10orf62 (parent)
chain: MLWVQRKRRRKETSECPSDKDKSP

Variants of: B1
protocol: protein stability index of a GFP-peptide fusion (GPS, HEK-293T) (PSI 1-6); higher = more stable;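 further: lentivirally expressed fusions sorted by FACS into six bins by GFP to DsRed ratio, PSI derived from sequencing read proportions per bin multiplied by bin number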
protocol conditions: c terminus: a fixed tail appended
Kindly supply the reported protein stability index values for the records listed here.
Answers are plain numbers.

Record excerpt, results attached:
[[record]]
alteration = "R6T"
data_value = 3.13

[[record]]
alteration = "E12T"
data_value = 2.92

[[record]]
alteration = "L2E"
data_value = 4


Would you mind giving protein stability index for every variant in the list below?
1. R6D
2. K20H
3. P24S
4. E12N
5. Q5F
6. K22L

1. 3.9
2. 2.97
3. 3.11
4. 2.67
5. 2.67
6. 3.2

Would you mind giving protein stability index for every variant in the list below?
1. D19V
2. W3M

1: 2.63; 2: 3.46

Would you mind giving protein stability index for every variant in the list below?
1. L2P
2. S23M

[4.59, 3.39]

Would you mind giving protein stability index for every variant in the list below?
1. W3C
2. S14Y
3. C16F
4. K20L

4.07
2.44
2.29
3.01

Would you mind giving protein stability index for every variant in the list below?
1. R8L
2. M1K
3. E12C
4. W3A
5. E15M

[2.51, 3.53, 2.7, 4.3, 2.24]
